Data origin: patent US20190062453A1

target: T1, human DR5 ECD-Avi-his (human, UniProt O14763 56-207); test: SPR (BIAcore 3000), antibody captured by anti-human Fc, monomeric DR5 injected
T1 construct: also called recombinant human DR5 (monomeric His-Avi fusion protein); monomeric human DR5
kon values for the binders below.
Number only, in M⁻¹ s⁻¹; omit the unit.

DR5TAA-0052 (antibody, human IgG1, kappa, L234A L235A, V domains shown, rabbit variable, human constant regions; also called chimeric form of DR5TAA-0011; chimeric variant) VH: QSVEESGGRLVTPGTPLTLTCTVSGFSISRYAMIWVRQAPGEGLEYIGFITSDSSAYYASWAKGRFTISKTSTTVDLKMTSPTTEDTATYFCARYTYSDGTDLWGPGTLVTVSS VL: DIVMTQTPASVSEPVGGTVTIKCQASQSISTYLSWYQQKPGQPPKRLIYKASTLASGVPSRFKGSGSGTDFTLTIRDLESADAATYYCQPNSGIATYGAAFGGGTEVVVKR ... 350000
DR5TAA-0075 (antibody, human IgG1, kappa, L234A L235A, V domains shown, humanized variant of DR5TAA-0011; also called VH7/VL11) VH: EVQLVETGGGLIQPGGSLRLSCAASGFTVSRYAMIWVRQAPGKGLEYIGFITSDGSTYYADSAKGRFTISRDNSKNTLYLQMNSLRAEDTAVYYCARYTYSDGTDLWGRGTLVTVSS VL: DIQMTQSPSSLSASVGDRVTITCQASQSISTYLSWYQQKPGQPPKRLIYKASTLASGVPSRFSGSGSGTDFTLTISSLQPEDFATYYCQPNSGIATYGAAFGGGTKVEIKR ... 320000
DR5TAA-0074 (antibody, human IgG1, kappa, L234A L235A, V domains shown, humanized variant of DR5TAA-0011; also called VH7/VL10) VH: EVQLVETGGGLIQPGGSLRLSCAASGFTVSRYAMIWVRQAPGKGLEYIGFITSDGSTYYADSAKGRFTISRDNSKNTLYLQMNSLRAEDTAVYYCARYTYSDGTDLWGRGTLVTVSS VL: DIQMTQSPSSLSASVGDRVTITCRASQSISTYLSWYQQKPGQPPKRLIYKASTLASGVPSRFSGSGSGTDFTLTISSLQPEDFATYYCQPNSGIATYGAAFGGGTKVEIKR ... 270000

With those in mind, consider the next binder.
What the record says about DR5TAA-0067 (antibody, human IgG1, kappa, L234A L235A, V domains shown, humanized variant of DR5TAA-0011; also called VH7/VL15) VH: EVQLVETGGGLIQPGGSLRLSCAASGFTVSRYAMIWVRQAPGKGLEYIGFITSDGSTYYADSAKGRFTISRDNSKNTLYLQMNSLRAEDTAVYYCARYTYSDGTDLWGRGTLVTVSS VL: DIQMTQSPSTLSASVGDRVTITCRASQSISTYLSWYQQKPGKAPKRLIYKASSLASGVPSRFSGSGSGTEFTLTISSLQPDDAATYYCQPNSGIATYGAAFGGGTKVEIKR : kon is 260000
